molecular target: 72 kDa type IV collagenase (Homo sapiens, UniProt P08253)
Sequence (P08253 whole entry): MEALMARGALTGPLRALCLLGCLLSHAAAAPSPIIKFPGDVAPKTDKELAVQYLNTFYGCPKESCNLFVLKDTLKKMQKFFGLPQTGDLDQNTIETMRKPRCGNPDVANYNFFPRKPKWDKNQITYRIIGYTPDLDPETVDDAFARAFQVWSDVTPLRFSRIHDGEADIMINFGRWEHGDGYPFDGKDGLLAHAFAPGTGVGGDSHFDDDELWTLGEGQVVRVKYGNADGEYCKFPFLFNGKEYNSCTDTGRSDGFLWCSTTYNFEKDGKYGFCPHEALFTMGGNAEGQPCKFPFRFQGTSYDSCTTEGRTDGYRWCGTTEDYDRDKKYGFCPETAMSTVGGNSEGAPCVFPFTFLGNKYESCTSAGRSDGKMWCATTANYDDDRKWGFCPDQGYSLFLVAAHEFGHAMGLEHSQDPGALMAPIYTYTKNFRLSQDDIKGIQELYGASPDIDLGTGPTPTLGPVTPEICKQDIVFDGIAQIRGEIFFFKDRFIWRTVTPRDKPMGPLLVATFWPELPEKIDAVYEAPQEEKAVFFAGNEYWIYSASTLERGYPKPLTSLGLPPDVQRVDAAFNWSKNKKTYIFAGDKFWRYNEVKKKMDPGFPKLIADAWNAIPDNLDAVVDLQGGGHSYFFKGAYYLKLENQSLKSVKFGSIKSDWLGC
pKi: −log10 of the molar value.
pKi listing for selected compounds.

> print(dat)
                                   compound  assay.endpoint  value.reported
1  CC(=O)N1CCN(C2(CNC(=O)c3ccc(OCc4cc(C)nc5ccccc45)cc3)C(=O)NC(=O)NC2=O)CC1             pKi          < 5.48
2  Cc1cc(COc2ccc(C(=O)NCC3(N4CCN(C(C)C)CC4)C(=O)NC(=O)NC3=O)cc2)c2ccccc2n1             pKi          < 5.48
3  C#CCN1CCN(C2(CNC(=O)c3ccc(OCc4cc(C)nc5ccccc45)cc3)C(=O)NC(=O)NC2=O)CC1             pKi          < 5.48
4  Cc1cc(COc2ccc(C(=O)NCC3(N4CCN(S(C)(=O)=O)CC4)C(=O)NC(=O)NC3=O)cc2)c2ccccc2n1             pKi            5.66
5  Cc1cc(COc2ccc(C(=O)NCC3(Cc4ccccc4)C(=O)NC(=O)NC3=O)cc2)c2ccccc2n1             pKi            6.43
6  Cc1cc(COc2ccc(C(=O)NCC3(C4CCN(C(=O)C(C)(C)C)CC4)C(=O)NC(=O)NC3=O)cc2)c2ccccc2n1             pKi          < 5.48

Recorded pKi for "Cc1cc(COc2ccc(C(=O)NCC3(N4CCN(Cc5ccccc5)CC4)C(=O)NC(=O)NC3=O)cc2)c2ccccc2n1" on 72 kDa type IV collagenase (Homo sapiens, UniProt P08253) was 5.57

Recorded pKi for "Cc1cc(COc2ccc(C(=O)NCC3(C4CCN(S(C)(=O)=O)CC4)C(=O)NC(=O)NC3=O)cc2)c2ccccc2n1" on 72 kDa type IV collagenase (Homo sapiens, UniProt P08253) was < 5.48

Recorded pKi for Cc1cc(COc2ccc(C(=O)NC3CN(C(=O)c4cccnc4)CC34C(=O)NC(=O)NC4=O)cc2)c2ccccc2n1 (stereo unspecified) on 72 kDa type IV collagenase (Homo sapiens, UniProt P08253) was < 5.48

Recorded pKi for "Cc1cc(COc2ccc(C(=O)NCC3(C(C)C)C(=O)NC(=O)NC3=O)cc2)c2ccccc2n1" on 72 kDa type IV collagenase (Homo sapiens, UniProt P08253) was 6.03

Recorded pKi for "Cc1cc(COc2ccc(C(=O)NCC3(C)C(=O)NC(=O)NC3=O)cc2)c2ccccc2n1" on 72 kDa type IV collagenase (Homo sapiens, UniProt P08253) was < 5.48

Recorded pKi for "Cc1cc(COc2ccc(C(=O)NCC3(N4CCN(C)CC4)C(=O)NC(=O)NC3=O)cc2)c2ccccc2n1" on 72 kDa type IV collagenase (Homo sapiens, UniProt P08253) was < 5.48

Recorded pKi for "Cc1cc(COc2ccc(C(=O)NCC3(N4CCN(C(=O)c5cccnc5)CC4)C(=O)NC(=O)NC3=O)cc2)c2ccccc2n1" on 72 kDa type IV collagenase (Homo sapiens, UniProt P08253) was < 5.48

###

target: Disintegrin and metalloproteinase domain-containing protein 17 (Sus scrofa)
Assay Endpoint: pIC50
In simple prose, pIC50 is minus the logarithm base ten of a concentration in moles per litre.

Some solved entries appear below for comparison.
> print(dat)
                                chem.smiles  value.reported
1  Cc1cc(COc2ccc(C(=O)NCC3(C4CCN(C)CC4)C(=O)NC(=O)NC3=O)cc2)c2ccccc2n1            7.24
2  Cc1cc(COc2ccc(C(=O)NCC3(C4CCN(S(C)(=O)=O)CC4)C(=O)NC(=O)NC3=O)cc2)c2ccccc2n1            7.54

Recorded pIC50 for "Cc1cc(COc2ccc(C(=O)CCC3(C)C(=O)NC(=O)NC3=O)cc2)c2ccccc2n1" on Disintegrin and metalloproteinase domain-containing protein 17 (Sus scrofa) was 6.10

###

biological target: Disintegrin and metalloproteinase domain-containing protein 17 (Sus scrofa, UniProt O77636)
Sequence (O77636 whole entry, the tested form may be a part): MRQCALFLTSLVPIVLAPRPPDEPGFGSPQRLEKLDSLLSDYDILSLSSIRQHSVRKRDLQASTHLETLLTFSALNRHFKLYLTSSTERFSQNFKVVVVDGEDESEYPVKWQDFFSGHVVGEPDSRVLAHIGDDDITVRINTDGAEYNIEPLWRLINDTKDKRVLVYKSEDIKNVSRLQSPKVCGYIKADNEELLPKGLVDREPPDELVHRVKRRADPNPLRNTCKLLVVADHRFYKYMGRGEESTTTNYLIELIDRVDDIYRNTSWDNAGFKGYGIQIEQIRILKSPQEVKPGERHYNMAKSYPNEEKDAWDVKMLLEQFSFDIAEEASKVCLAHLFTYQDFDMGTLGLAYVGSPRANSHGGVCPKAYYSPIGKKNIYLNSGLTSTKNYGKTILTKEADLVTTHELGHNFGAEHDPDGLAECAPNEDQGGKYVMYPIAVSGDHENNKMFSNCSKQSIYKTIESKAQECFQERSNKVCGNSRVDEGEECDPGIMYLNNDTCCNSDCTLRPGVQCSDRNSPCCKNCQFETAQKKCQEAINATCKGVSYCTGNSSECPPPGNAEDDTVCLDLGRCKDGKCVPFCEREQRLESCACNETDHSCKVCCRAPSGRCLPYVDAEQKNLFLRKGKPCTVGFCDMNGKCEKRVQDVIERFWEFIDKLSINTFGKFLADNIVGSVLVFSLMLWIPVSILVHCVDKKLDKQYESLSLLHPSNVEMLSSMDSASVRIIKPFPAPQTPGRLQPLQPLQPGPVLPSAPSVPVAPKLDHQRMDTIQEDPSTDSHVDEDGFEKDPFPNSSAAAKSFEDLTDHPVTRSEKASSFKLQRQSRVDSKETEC
pIC50 listing for selected molecules.
In simple prose, pIC50 is minus the logarithm base ten of a concentration in moles per litre.

Some solved entries appear below for comparison.
> print(dat)
                                   molecule  value.reported
1  Cc1cc(COc2ccc(C3(C)C(=O)NC(=O)NC3=O)cc2)c2ccccc2n1            5.99
2  Cc1cc(COc2ccc(C(=O)NCC3(N4CCN(Cc5ccccc5)CC4)C(=O)NC(=O)NC3=O)cc2)c2ccccc2n1            7.85
3  Cc1cc(COc2ccc(C(=O)NC3CN(C(=O)c4cccnc4)CC34C(=O)NC(=O)NC4=O)cc2)c2ccccc2n1 (stereo not given)            7.54
4  Cc1cc(COc2ccc(C(=O)NCC3(N4CCN(C(=O)C(C)(C)C)CC4)C(=O)NC(=O)NC3=O)cc2)c2ccccc2n1            7.54

Now turn to the next molecule.
The measured pIC50 associated with "Cc1cc(COc2ccc(CCC3(C)C(=O)NC(=O)NC3=O)cc2)c2ccccc2n1" reads 4.31

###

species: Homo sapiens; test: Inhibition of aggrecanase at 1 uM
Assay Endpoint: inhibition

> print(dat)
                                chem.smiles  value.reported
1  C#CCN1CCN(C2(CNC(=O)c3ccc(OCc4cc(C)nc5ccccc45)cc3)C(=O)NC(=O)NC2=O)CC1             26%
2  Cc1cc(COc2ccc(C(=O)NCC3(C4CCN(S(C)(=O)=O)CC4)C(=O)NC(=O)NC3=O)cc2)c2ccccc2n1             36%
3  Cc1cc(COc2ccc(C(=O)NCC3(C4CCN(C5CCOCC5)CC4)C(=O)NC(=O)NC3=O)cc2)c2ccccc2n1              5%

The measured inhibition associated with "Cc1cc(COc2ccc(C(=O)NCC3(N4CCN(C(=O)c5cccnc5)CC4)C(=O)NC(=O)NC3=O)cc2)c2ccccc2n1" reads 36%

###

Endpoint: IC50. System: Disintegrin and metalloproteinase domain-containing protein 17 (Sus scrofa). Items follow.
Quick note: give the figure in nM, leave out the unit.

> print(dat)
                                   compound                               system.name  unit.symbol  value.reported
1  Cc1cc(COc2ccc(C(=O)NCC3(NC(=O)OC(C)(C)C)C(=O)NC(=O)NC3=O)cc2)c2ccccc2n1  Disintegrin and metalloproteinase domain-containing protein 17 (Sus scrofa)           nM              13
2  Cc1cc(COc2ccc(C(=O)NCC3(C4CCN(C(=O)OC(C)(C)C)CC4)C(=O)NC(=O)NC3=O)cc2)c2ccccc2n1  Disintegrin and metalloproteinase domain-containing protein 17 (Sus scrofa)           nM              47

Recorded IC50 for Cc1cc(COc2ccc(C(=O)NC3CCCCC34C(=O)NC(=O)NC4=O)cc2)c2ccccc2n1 (centres undefined) on Disintegrin and metalloproteinase domain-containing protein 17 (Sus scrofa) was 138

###

Molecular target: Interstitial collagenase (Homo sapiens, UniProt P03956)
Sequence (P03956 whole entry): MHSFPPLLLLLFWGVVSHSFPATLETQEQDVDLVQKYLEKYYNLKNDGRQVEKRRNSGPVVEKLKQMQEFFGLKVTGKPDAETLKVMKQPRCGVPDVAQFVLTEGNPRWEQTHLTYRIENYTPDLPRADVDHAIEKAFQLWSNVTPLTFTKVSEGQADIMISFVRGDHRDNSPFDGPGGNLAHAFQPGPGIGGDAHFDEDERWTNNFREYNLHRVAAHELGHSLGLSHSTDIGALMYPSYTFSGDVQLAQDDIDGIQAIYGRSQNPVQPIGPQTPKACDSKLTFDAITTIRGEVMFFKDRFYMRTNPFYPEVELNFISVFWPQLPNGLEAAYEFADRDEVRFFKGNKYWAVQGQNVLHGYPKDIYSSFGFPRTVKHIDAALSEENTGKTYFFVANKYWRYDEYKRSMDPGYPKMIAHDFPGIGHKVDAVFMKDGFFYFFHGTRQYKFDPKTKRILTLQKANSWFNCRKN
Assay Endpoint: Ki

The measured Ki associated with "Cc1cc(COc2ccc(C(=O)NCC3(C)C(=O)NC(=O)NC3=O)cc2)c2ccccc2n1" reads > 4.95 µM

###

organism: Homo sapiens; experiment: Inhibition of aggrecanase at 1 uM
Classification field: 1 (yes) = inhibition at or over 10%; 0 (no) = inhibition under 10%.

> print(dat)
                                   compound  group.label
1  Cc1cc(COc2ccc(C(=O)NCC3(N4CCN(S(C)(=O)=O)CC4)C(=O)NC(=O)NC3=O)cc2)c2ccccc2n1      1 (yes)

Request: Reported inhibition reaches at least 10% for Cc1cc(COc2ccc(C(=O)NC3CCCCC34C(=O)NC(=O)NC4=O)cc2)c2ccccc2n1 (stereo not drawn) ?
Result: 1 (yes)

Request: Reported inhibition reaches at least 10% for "Cc1cc(COc2ccc(C(=O)NCC3(N4CCN(C)CC4)C(=O)NC(=O)NC3=O)cc2)c2ccccc2n1" ?
Result: 1 (yes)

Request: Reported inhibition reaches at least 10% for "Cc1cc(COc2ccc(C(=O)NCC3(N4CCN(C(=O)C(C)(C)C)CC4)C(=O)NC(=O)NC3=O)cc2)c2ccccc2n1" ?
Result: 0 (no)
